Each recorded value in this set is attributed to the RNAGym collection of RNA variant scans (doi:10.1002/anie.201605470).

B1: Osa-1-4 twister ribozyme (parent)
chain: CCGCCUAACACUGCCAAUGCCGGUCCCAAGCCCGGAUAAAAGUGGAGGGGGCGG

Variants of: B1
Assay: self-cleavage, relative activity (ratio to wild type); higher = more cleavage; co-transcriptional
Kindly return condition met if reported self-cleavage is no lower than 0.3; return condition not met if it is lower.

Worked cases, answers included:
residue_change="A28C A40U" category_label="condition met"
residue_change="C26A G22A" category_label="condition not met"
residue_change="A40C C25A" category_label="condition not met"
residue_change="A29C A40U" category_label="condition not met"
residue_change="C15U C26A" category_label="condition not met"
residue_change="C21U G22A" category_label="condition not met"
residue_change="A39G C21U" category_label="condition met"
residue_change="A16G G30U" category_label="condition not met"
residue_change="G30A G44U" category_label="condition not met"
residue_change="A8U G34A" category_label="condition not met"

Answer whether self-cleavage of A46U G23A is greater than or equal to 0.3.
condition not met

Check G48U U37G too.
condition not met

Check G13U G54C too.
condition not met

Check C20G C31G too.
condition not met

Check C20A U12G too.
condition met

Check A10C C33A too.
condition not met

Check A40G A41U too.
condition met

Check A17G G19C too.
condition not met

Check A36G G49A too.
condition not met

Check G35C G45U too.
condition not met

Check A38G G34A too.
condition met

Check C20G U43A too.
condition not met

Check A41U U43G too.
condition met

Check A38G C31U too.
condition met

Check G42U G54A too.
condition not met
